Attribute: kon
- systemUnderTest: T1, human IL-12 (human, UniProt P29459 23-219; P29460 23-328)
- T1 construct: also called interleukin 12
- T1 sequence (looked up) 1: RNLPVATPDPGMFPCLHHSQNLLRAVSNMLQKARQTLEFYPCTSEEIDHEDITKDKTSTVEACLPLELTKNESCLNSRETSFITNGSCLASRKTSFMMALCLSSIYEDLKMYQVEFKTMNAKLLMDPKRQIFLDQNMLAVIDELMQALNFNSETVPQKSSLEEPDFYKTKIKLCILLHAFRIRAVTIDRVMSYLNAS
- T1 sequence (looked up) 2: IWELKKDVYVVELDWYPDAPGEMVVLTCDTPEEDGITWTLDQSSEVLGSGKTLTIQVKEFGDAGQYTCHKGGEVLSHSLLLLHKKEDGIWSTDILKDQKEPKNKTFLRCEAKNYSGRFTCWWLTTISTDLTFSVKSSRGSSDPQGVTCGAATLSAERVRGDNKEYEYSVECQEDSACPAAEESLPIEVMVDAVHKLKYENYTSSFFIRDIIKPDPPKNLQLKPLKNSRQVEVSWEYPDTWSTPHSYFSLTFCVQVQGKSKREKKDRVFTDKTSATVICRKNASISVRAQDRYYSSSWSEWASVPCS
- experimentalProtocol: SPR, IL-12
State the answer as a number, implicitly in M⁻¹ s⁻¹.

binder | observedValue
mAb 8 (antibody, IgG1, V domains shown, Briakinumab variant (IgG1) with five positively charged heavy chain residues mutated; also called Briakinumab with HC mutations R16A, R19A, K57A, K64A, R83A) VH: QVQLVESGGGVVQPGASLALSCAASGFTFSSYGMHWVRQAPGKGLEWVAFIRYDGSNAYYADSVAGRFTISRDNSKNTLYLQMNSLAAEDTAVYYCKTHGSHDNWGQGTMVTVSS VL: QSVLTQPPSVSGAPGQRVTISCSGSRSNIGSNTVKWYQQLPGTAPKLLIYYNDQRPSGVPDRFSGSKSGTSASLAITGLQAEDEADYYCQSYDRYTHPALLFGTGTKVTVL | 1.2e+06
mAb 9 (antibody, IgG1, V domains shown, Briakinumab variant (IgG1) with three positively charged residues of the light chain CDRs mutated to alanine; also called Briakinumab with LC mutations R27A, R55A, R94A) VH: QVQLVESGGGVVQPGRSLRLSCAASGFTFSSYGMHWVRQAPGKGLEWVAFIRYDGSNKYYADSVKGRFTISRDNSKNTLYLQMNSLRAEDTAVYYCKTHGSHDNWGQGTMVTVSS VL: QSVLTQPPSVSGAPGQRVTISCSGSASNIGSNTVKWYQQLPGTAPKLLIYYNDQAPSGVPDRFSGSKSGTSASLAITGLQAEDEADYYCQSYDAYTHPALLFGTGTKVTVL | 8.8e+06
mAb 2 (antibody, V domains shown, Fv domain of Briakinumab on the Ustekinumab constant domains (IgG1)) VH: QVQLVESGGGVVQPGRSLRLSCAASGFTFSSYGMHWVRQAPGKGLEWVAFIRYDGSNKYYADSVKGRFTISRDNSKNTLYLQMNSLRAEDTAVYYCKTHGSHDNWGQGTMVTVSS VL: QSVLTQPPSVSGAPGQRVTISCSGSRSNIGSNTVKWYQQLPGTAPKLLIYYNDQRPSGVPDRFSGSKSGTSASLAITGLQAEDEADYYCQSYDRYTHPALLFGTGTKVTVLG | 1.2e+06
mAb 1 (antibody, V domains shown, Fv domain of Ustekinumab on the constant parts of Briakinumab (IgG1)) VH: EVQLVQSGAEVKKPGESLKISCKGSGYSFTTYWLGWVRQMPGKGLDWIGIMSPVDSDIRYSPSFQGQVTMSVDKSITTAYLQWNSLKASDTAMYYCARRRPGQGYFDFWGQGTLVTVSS VL: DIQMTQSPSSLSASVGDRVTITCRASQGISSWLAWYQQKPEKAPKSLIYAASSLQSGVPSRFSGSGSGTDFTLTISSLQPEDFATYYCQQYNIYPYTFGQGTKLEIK | 1.7e+06
Ustekinumab (antibody, V domains shown, Fully human IgG1; also called CNTO 1275; Stelara) VH: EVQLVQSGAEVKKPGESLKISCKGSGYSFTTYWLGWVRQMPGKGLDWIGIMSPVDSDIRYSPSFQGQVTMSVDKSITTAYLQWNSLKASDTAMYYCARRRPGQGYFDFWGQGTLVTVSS VL: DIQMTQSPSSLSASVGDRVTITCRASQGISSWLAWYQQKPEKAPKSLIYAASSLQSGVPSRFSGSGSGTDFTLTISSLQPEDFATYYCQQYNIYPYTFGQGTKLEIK | 900000

# binder Briakinumab (antibody, V domains shown, Fully human IgG1; also called ABT 874; J 695) VH: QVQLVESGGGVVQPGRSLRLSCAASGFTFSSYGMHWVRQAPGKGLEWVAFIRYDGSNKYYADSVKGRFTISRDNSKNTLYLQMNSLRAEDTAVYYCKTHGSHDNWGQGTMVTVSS VL: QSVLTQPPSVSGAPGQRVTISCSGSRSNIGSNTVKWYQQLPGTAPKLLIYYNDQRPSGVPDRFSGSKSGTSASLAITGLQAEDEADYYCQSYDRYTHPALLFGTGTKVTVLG ; its kon = 800000
